Test system: CCRIS mutagenicity, Ames/micronucleus/aberration tests
Experiment: CCRIS mutagenicity studies
Stated conditions: Test System: AMES SALMONELLA TYPHIMURIUM; Strain/Indicator: TA100; Metabolic Activation: S-9
Calls of active or inactive are those of the source. How the calls were made is not given here.
Mark one answer only. Choices: yes (1) = active, no (0) = inactive

[in] Entry "CC(C)COP(=S)(OCC(C)C)SCCl" : call = ?
[out] no (0)

[in] In this assay, the call recorded for "O=C1OCCN1N=Cc1ccc([N+](=O)[O-])o1" was what?
[out] yes (1)

[in] Can you look up the reported call for "COS(=O)(=O)OC" for me?
[out] yes (1)

[in] Each compound tested received a call. Report the one for "C#C[C@]1(O)CC[C@H]2[C@@H]3CCC4=CC(=O)CC[C@@H]4[C@H]3CC[C@@]21C" .
[out] no (0)

[in] How was "O=C1CCCc2cc3c(cc21)c([N+](=O)[O-])cc1ccccc13" classified in this test?
[out] yes (1)

###

Test system: CCRIS mutagenicity, Ames/micronucleus/aberration tests
Experiment: CCRIS mutagenicity studies
Stated conditions: Test System: AMES SALMONELLA TYPHIMURIUM; Strain/Indicator: TA98; Metabolic Activation: NONE; Method: STANDARD PLATE
The source made the active and inactive calls. The rule behind the calls is not given here.
Endpoint name: mutagenic call

Below are worked cases with known answers.
>>> result("CCOc1ccc2c(c1)C(C)=CC(C)(C)N2")
"inactive; negative"
>>> result("Cc1ccccc1NS(=O)(=O)c1cccc2cccnc12")
"inactive; negative"
>>> result("O=S(=O)(NO)c1cccc2cccnc12")
"inactive; negative"
>>> result("COc1cc(NC(C)=O)ccc1NC(C)=O")
"inactive; negative"
>>> result("Cc1cc(C)cc(C)c1")
"inactive; negative"
>>> result("OC[C@@H](O)[C@@H](O)[C@H](O)[C@H](O)CO")
"inactive; negative"
>>> result("CC(=O)c1ccco1")
"inactive; negative"

Value of mutagenic call reported for the compound "O=C(O)/C=C/c1ccc(O)c(O)c1" is inactive; negative

###

Tested on: CCRIS mutagenicity, Ames/micronucleus/aberration tests
Experiment: CCRIS mutagenicity studies
Stated conditions: Test System: AMES SALMONELLA TYPHIMURIUM; Strain/Indicator: TA100; Metabolic Activation: NONE; Method: STANDARD PLATE
The source made the active and inactive calls. No rule for the calls is given here.
# valid calls are active, inactive; nothing else

[in] Tell me the recorded outcome of this test for "C[C@@H]1O[C@@H](OC[C@H]2O[C@@H](Oc3c(-c4ccc(OCCO)c(OCCO)c4)oc4cc(OCCO)cc(O)c4c3=O)[C@H](O)[C@@H](O)[C@@H]2O)[C@H](O)[C@H](O)[C@H]1O" .
[out] inactive

[in] Just curious, what result did "CC1(C)CC(N)CC(C)(C)N1[O]" get here?
[out] active

[in] Any idea what this test logged for "Nc1c(N=Nc2ccc([N+](=O)[O-])cc2)c(S(=O)(=O)O)cc2cc(S(=O)(=O)O)c(N=Nc3ccccc3)c(O)c12" ?
[out] inactive

[in] What was the test verdict on "O=c1c(Cl)c(Cl)cnn1S(=O)(=O)c1ccccc1" ?
[out] inactive

[in] Outcome logged for "Nc1nc2cc(Cl)c(Cl)cc2s1" in this assay:
[out] inactive

[in] Record lookup: outcome of this test for CC(O)CN(CCN(CC(C)O)CC(C)O)CC(C)O (stereo not given) ?
[out] inactive

[in] Give the logged outcome of this assay for the following compound: "Fc1ccccc1-c1ccccc1"
[out] inactive

[in] Recorded call for "Cc1ccc2[nH]c3c(C)cc([N+](=O)[O-])c(C)c3c2c1" ?
[out] inactive

[in] Hi team, can someone confirm the assay call for "CC(=O)[CH-]C(=O)c1ccccc1.CC(=O)[CH-]C(=O)c1ccccc1.CC[O-].CC[O-].[Ti+4]" ?
[out] inactive

[in] Assay outcome for "CC(C)(C#N)C(C)(C)C#N" : what was it?
[out] inactive

###

Test system: CCRIS mutagenicity, Ames/micronucleus/aberration tests
Experiment: CCRIS mutagenicity studies
Stated conditions: Test System: AMES SALMONELLA TYPHIMURIUM; Strain/Indicator: TA98; Metabolic Activation: NONE; Method: PREINCUBATION
Active and inactive are the calls of the source. The rule behind the calls is not given here.
Endpoint name: mutagenic call

>>> result("NC(N)=NC(N)=NCCc1ccccc1")
"inactive; negative"
>>> result("Nn1nnc2c([nH]c3ccccc32)c1=O")
"active; positive"
>>> result("O=C(O)c1ccc(O)cc1")
"inactive; negative"
>>> result("O=C1c2ccccc2C(=O)c2c1cc(O)c(CO)c2O")
"active; positive"
>>> result("O=[N+]([O-])c1cccc2c1oc1ccccc12")
"active; positive"
>>> result("Nc1ccc(-c2ccc(N)c(Cl)c2)cc1Cl")
"active; positive"
>>> result("CC(=O)OCC(O)CO (centres undefined)")
"inactive; negative"
>>> result("CC(=O)Oc1cc(C=O)cc2c1C(COC(N)=O)C1(OC(C)=O)ON2CC2C1N2C(C)=O (centres undefined)")
"inactive; negative"

# mutagenic call of "C/C=C/C=C/C" = inactive; negative

// "O=[N+]([O-])c1ccc(Nc2ccc(Cl)cc2)cc1" : mutagenic call value = inactive; negative

Sample "O=c1c(=O)c2c([N+](=O)[O-])ccc3ccc4cccc1c4c32" ; mutagenic call observed: active; positive

For "O=[N+]([O-])c1ccccc1CCO" the compound record lists mutagenic call as inactive; negative

The measured mutagenic call associated with "O=C(O)c1ccc(/C=C/c2ccc([N+](=O)[O-])o2)cc1" reads active; positive

Just so you know, measured mutagenic call for "Cc1ccc(C=O)cc1" came out at inactive; negative

###

Tested on: CCRIS mutagenicity, Ames/micronucleus/aberration tests
Experiment: CCRIS mutagenicity studies
Stated conditions: Test System: AMES SALMONELLA TYPHIMURIUM; Strain/Indicator: YG1026; Metabolic Activation: NONE; Method: STANDARD PLATE
Source text: The CCRIS database contains chemical records with carcinogenicity, mutagenicity, tumor promotion, and tumor inhibition test results. It was developed by the National Cancer Institute (NCI). Data are derived from studies cited in primary journals, current awareness tools, NCI reports, and other sources. Test results have been reviewed by experts in carcinogenesis and mutagenesis. CCRIS provides historical information from the years 1985 - 2011. It is no longer updated. […]
Activity calls are given as the source filed them. No rule for the calls is given here.
Endpoint name: mutagenic call

>>> result("O=[N+]([O-])c1cc2ccccc2c2c([N+](=O)[O-])cccc12")
"active; positive"
>>> result("O=[N+]([O-])c1cc2ccccc2c2ccccc12")
"active; positive"
>>> result("O=[N+]([O-])c1ccc2ccc3c([N+](=O)[O-])cccc3c2c1")
"active; positive"
>>> result("COc1cccc2c1ccc1c(C(=O)O)cc3c(c12)OCO3")
"inactive; negative"
>>> result("O=[N+]([O-])c1ccc2c(c1)cc([N+](=O)[O-])c1ccccc12")
"active; positive"
>>> result("O=[N+]([O-])OCC(CO[N+](=O)[O-])O[N+](=O)[O-]")
"inactive; negative"

# ---- query compound ----
// mutagenic call lookup, compound = "O=[N+]([O-])c1ccc2ccc3ccc([N+](=O)[O-])cc3c2c1" , result: active; positive

###

Tested on: CCRIS mutagenicity, Ames/micronucleus/aberration tests
Experiment: CCRIS mutagenicity studies
Stated conditions: Test System: AMES SALMONELLA TYPHIMURIUM; Strain/Indicator: TA98; Metabolic Activation: HAMSTER, LIVER, S-9, AROCLOR 1254 (10%); Method: PREINCUBATION
Calls of active or inactive are those of the source. The rule behind the calls is not given here.
Select the correct class. Options are active, inactive and nothing else.

[in] For "O=C1OC(=O)c2c(Br)c(Br)c(Br)c(Br)c21" , what call appears in the results of this test?
[out] inactive

[in] How was "CC(C)(C)N" classified in this test?
[out] inactive

[in] Hi, sorry to bother you, what did the test record for "O=C(Oc1ccccc1)c1ccccc1O" ?
[out] inactive

[in] I would be grateful if you could indicate the recorded call for "C=C(C)C(=O)OCC" .
[out] inactive

[in] So what was the verdict on CCCCC(CC)COC(=O)CCCCC(=O)O (stereo unspecified) in this test?
[out] inactive

[in] Look up the recorded call for "CC(C)CN" in this test.
[out] inactive

[in] Give the logged outcome of this assay for the following molecule: "OCCN1CN(CCO)CN(CCO)C1"
[out] inactive

[in] Check the results log: what was the call for "CN(C)c1ccc(N=Nc2ccccc2)cc1" ?
[out] active

[in] Hi, sorry to bother you, what did the test record for "NC(=O)c1ccccc1C(N)=O" ?
[out] inactive

[in] What classification did "O=NN1CCCCC1" end up with in this test?
[out] active

[in] I'd appreciate the recorded outcome for "S=c1[nH]c2ccccc2[nH]1" from this test.
[out] inactive

[in] Call for entry "NCCNCCN" :
[out] inactive

[in] Answer briefly: the call reported for CCCCC(CC)COC(=O)C(C#N)=C(c1ccccc1)c1ccccc1 (stereo unspecified) in this assay.
[out] inactive

[in] What is the recorded call for this molecule in the test? "NC(N)=NC(N)=NCCc1ccccc1"
[out] inactive

[in] Kindly provide the recorded test outcome for the following molecule: "CCN(CC)CC"
[out] inactive

[in] Give the logged outcome of this assay for the following molecule: CCC(CO)[N+](=O)[O-] (stereo unspecified)
[out] inactive

src = PubChem BioAssay AID1259407
